Entry source: paper PMC4072508

Tgt: T1, Bcl-w, Q92843
T1 chain: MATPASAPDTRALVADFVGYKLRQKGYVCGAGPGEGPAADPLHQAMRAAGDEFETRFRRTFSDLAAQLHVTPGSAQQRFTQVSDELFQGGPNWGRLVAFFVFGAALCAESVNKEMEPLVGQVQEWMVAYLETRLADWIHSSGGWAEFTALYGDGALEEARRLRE
Procedure Details: peptide SPOT array, c-Myc-tagged receptor at 1 uM or 100 nM, anti-c-Myc-Cy3
Measurement Label: SPOT signal as a fraction of Bim BH3's signal on the same receptor and array

Consider the following illustrative entries.
{"Binder": "RAIPIKQGILLKRSGKSLNKEWKKKY [AGAP3]", "Observed Measurement": 0.64}
{"Binder": "PFKKMDFSRNLYDIGEQLDSEDLASL [CASP8]", "Observed Measurement": 0.03}
{"Binder": "DIDEGLYSRQLYVLGHEAMKRLQTSS [UBA1]", "Observed Measurement": 0.03}
{"Binder": "KYDPSKYCHNLKKIGEDFSNTIPISS [NOL8]", "Observed Measurement": 0.05}
{"Binder": "FQQTISCPEGLRLVGSEVGDRTLPGW [IRF3]", "Observed Measurement": 0.02}
{"Binder": "FTGNNTAVQELKRVSEQFTATFRRKA [TUBB4Q]", "Observed Measurement": 0.92}
{"Binder": "EKNLPKMAEALAHGADVNWANSEENK [ACAP2]", "Observed Measurement": 0.01}
{"Binder": "DTIYQGFAECLIRLGDSMGRGGELET [NRN1L]", "Observed Measurement": 0.03}
{"Binder": "RQAFYLHTTKLTRIARRLCREILRPW [MTA1]", "Observed Measurement": 0.89}
{"Binder": "ADLYEEAAENLHQLSDKLPAPGRAMV [MTBP]", "Observed Measurement": 0.02}

Now for the binder whose SPOT signal as a fraction of Bim BH3's signal on the same receptor and array we want.
Q: Look up SPOT signal as a fraction of Bim BH3's signal on the same receptor and array for this binder: KWTAEEVVLWLEQLGPWASLYRERFL [BFAR]
Result: 0.03
